Taken from PubChem BioAssay (NCI).

- Tested on: MDA-MB-435 melanoma
- protocol text: NCI-60 one-dose screen, 48 h
- measurement parameters: 10 µM unless noted
Compounds without any hit were thinned out: in the full panel of roughly 83,000, 20% have a hit. Calls of active or inactive are those of the source. The calls were made as follows: active = growth percent below 10; inactive = the rest.
One label from this list, please: active, inactive

compound	qualitative label
CCN(CC)CCCCCCCNc1c2ccc(Cl)cc2nc2ccc(OC)cc12	active
C[C@H]1O[C@@H](O[C@H]2[C@@H](O)C[C@H](O[C@H]3[C@@H](O)C[C@H](O[C@H]4CC[C@]5(C)C6C[C@@H](O)[C@]7(C)[C@@H](C8=CC(=O)OC8)CC[C@]7(O)C6CC[C@@H]5C4)O[C@@H]3C)O[C@@H]2C)C[C@H](O)[C@@H]1O (some centres undefined)	active
Cc1ccc(C2=Nc3c(ccc4c(C)c(C)c(=O)oc34)OC2)cc1	inactive

[ask] Check the results log: what was the call for O=C(COc1cccc(/C=C2\Cc3ccccc3C2=O)c1)c1ccc(Cl)cc1 ?
[reply] inactive

====

Catalogue of growth values
- System: M14 melanoma
- protocol text: NCI-60 one-dose screen, 48 h (100 = growth as untreated, 0 = no growth, -100 = all killed)
- measurement parameters: 10 µM unless noted
Compounds without any hit were thinned out: in the full panel of roughly 83,000, 20% have a hit.
Number in %, nothing else.

Answered examples (2):
> print(dat)
                                   compound  property  endpoint.value
1  COCCOCCOCCOCCOc1ccc2c(c1)C(=O)c1nc3ncccc3c(=O)n1-2    growth           -90.4
2  CN1CCN(CCCOc2ccc3ncnc(Nc4ccc(OCc5cccc(F)c5)c(Cl)c4)c3c2)CC1    growth           -83.4

[ask] Give the measured growth of COc1ccc(C2CC(c3ccc4c(c3)OCO4)=NN2C=O)cc1 (stereo unspecified) .
[reply] 102

[ask] Give the measured growth of O=C(Nc1cccc(Cl)c1)Nc1cccc(Cl)c1 .
[reply] 75.7

[ask] Give the measured growth of COc1cc(C2=NN(C=O)C(c3cccc(Nc4ccnc5cc(Cl)ccc45)c3)C2)cc(OC)c1OC (stereo unspecified) .
[reply] 64.1

====

- Test system: UACC-62 melanoma
- protocol text: NCI-60 one-dose screen, 48 h
- measurement parameters: 10 µM unless noted
- Protocol: Growth inhibition of the UACC-62 human tumor cell line is measured as a screen for anti-cancer activity. Cells are grown in 96 well plates and exposed to the test compound for 48 hours. Compounds are tested at a single concentration, which is 10^-5 M for most compounds. The reported endpoint is percent growth (GI% or GIPRCNT), where numbers from 0 - 100% represent growth inhibition, and numbers from -100% - 0 represent cell death. For example, a value of 40 represents 60% growth inhibition. […]
This is part of a sample that, as a whole, favours compounds with a hit. Of some 83,000 tested, about 20% had one in any assay. Active and inactive are the calls of the source. The calls were made as follows: active = growth percent below 10; inactive = the rest.
One label from this list, please: yes (1) (active), no (0) (inactive)

Some solved cases for reference:
compound	qualitative label
CC1CN(CC(O)c2ccc(Br)cc2)CCO1 (stereo unspecified)	no (0)
O=C(Oc1cccc2ccccc12)c1ccccc1C(=O)c1ccccc1	no (0)
Nc1ccc(N=Nc2ccccc2)cc1[N+](=O)[O-]	no (0)

[ask] Check the results log: what was the call for C[C@H]1O[C@@H](O[C@H]2[C@@H](O)C[C@H](O[C@H]3[C@@H](O)C[C@H](O[C@H]4CC[C@]5(C)C6CC[C@]7(C)[C@@H](C8=CC(=O)OC8)CC[C@]7(O)C6CC[C@@H]5C4)O[C@@H]3C)O[C@@H]2C)C[C@H](O)[C@@H]1O (stereo partly specified) ?
[reply] yes (1)

[ask] Check the results log: what was the call for Cc1sc2nc(NCCc3cccs3)[nH]c(=O)c2c1C ?
[reply] no (0)

[ask] Check the results log: what was the call for O=C(COc1cccc(/C=C2\Oc3ccc4ccccc4c3C2=O)c1)c1ccc([N+](=O)[O-])cc1 ?
[reply] no (0)

[ask] Check the results log: what was the call for O=Cc1ccccc1C(=O)O ?
[reply] no (0)

[ask] Check the results log: what was the call for O=c1oc2c(cc1-c1ccc([N+](=O)[O-])cc1)C(O)Oc1ccccc1-2 (stereo unspecified) ?
[reply] no (0)

[ask] Check the results log: what was the call for COc1cnc2c(c1)C(=O)c1c-2n(CCCNC2=NCCS2)c(=O)c2cc(F)ccc12 ?
[reply] no (0)

[ask] Check the results log: what was the call for COc1cccc(-c2nc3cc(NC(=O)c4ccc(Cl)c(C#N)c4)ccc3o2)c1 ?
[reply] no (0)

[ask] Check the results log: what was the call for Clc1ccc(C2c3ccccc3-c3nccn32)c(Cl)c1 (stereo unspecified) ?
[reply] no (0)

[ask] Check the results log: what was the call for COP(=O)(OC)C(c1ccccc1)(c1ccccc1)c1ccccc1 ?
[reply] no (0)

[ask] Check the results log: what was the call for CC(=O)Nc1c(Cl)cc2c(c1Cl)Cc1ccccc1-2 ?
[reply] no (0)

[ask] Check the results log: what was the call for C=C1CC[C@@H]2[C@](C)(COC(C)=O)[C@H](OC(C)=O)CC[C@@]2(C)[C@@H]1CC(NCc1ccccc1)C1=CCOC1=O (stereo partly specified) ?
[reply] no (0)

====

Catalogue of growth values
- Test system: OVCAR-5 ovarian
- protocol text: NCI-60 one-dose screen, 48 h (100 = growth as untreated, 0 = no growth, -100 = all killed)
- measurement parameters: 10 µM unless noted
The panel holds about 83,000 compounds, 20% with a hit somewhere; the sample as a whole holds those more often. Active and inactive are the calls of the source. How the source made its calls: active means growth percent below 10; inactive means the rest.

> print(dat)
                               given.smiles  property             endpoint.value
1  c1ccc(N2c3nc4ccccc4cc3Sc3cc4ccccc4nc32)nc1    growth           81.9% (inactive)
2     CC(C)Sc1nc(Cl)c(C#N)c(-c2ccc(F)cc2)n1    growth           99.2% (inactive)
3  COC(=O)[C@H](CCCCNC(=O)OCc1ccccc1)NC(=O)[C@@H](NC(=O)Nc1cc(C(F)(F)F)cc(C(F)(F)F)c1)C(C)C    growth  41.6% [100 µM] (inactive)
4    CC(=O)c1nn(-c2ccccc2)c(=Nc2ccccc2)cc1C    growth           90.5% (inactive)

[ask] Give the measured growth of O=C(COc1cccc(/C=C2\Oc3ccc4ccccc4c3C2=O)c1)c1ccc(Cl)cc1 .
[reply] 108% (inactive)

====

- Test system: MDA-MB-435 melanoma
- protocol text: NCI-60 one-dose screen, 48 h (100 = growth as untreated, 0 = no growth, -100 = all killed)
- measurement parameters: 10 µM unless noted
Compounds without any hit were thinned out: in the full panel of roughly 83,000, 20% have a hit.
property: growth (%)
Number in %, nothing else.

> print(dat)
                                   compound  property  endpoint.value
1  COc1cc(/C=C/C(=O)C(C(=O)/C=C/c2ccc(OC(=O)CCNc3nnc(C)s3)c(OC)c2)C(=O)CCNc2nnc(C)s2)ccc1OC(=O)CCNc1nnc(C)s1    growth           -27.5
2  CS(=O)(=O)N1CCN(Cc2cc3nc(-c4cccc5[nH]ncc45)nc(N4CCOCC4)c3s2)CC1 (tested in a mixture with another compound)    growth            15.9
3  N#Cc1c(NC(=O)c2ccco2)[n+]([O-])c2cc(Cl)c(Cl)cc2[n+]1[O-]    growth             126
4           COc1ccc2cc(C3=CC(=O)CCC3)ccc2c1    growth              93
5  c1ccc(COc2ccc(Nc3ncnc4c3cnn4-c3ccccc3)cc2)cc1    growth            90.1
6  O=C(/C=C/c1ccc(C(F)(F)F)cc1)c1ccc(Nc2nc(NCCO)nc(NCCO)n2)cc1    growth            92.8
7  COc1ccc(-c2ccc(O)c(C(=O)/C=C/c3cc(OC)c(OC)c(OC)c3)c2)cc1    growth            64.6
8  Cc1ccc(N/N=C(/C(=O)c2ccc(Cl)cc2)c2nc(C)cc(=O)[nH]2)cc1    growth             123

Now for a further compound.
[ask] Give recorded growth with MDA-MB-435 melanoma for the following compound: N#Cc1ccccc1C#Cc1ccccc1C#Cc1ccc(OCCCCCCOc2ccc(C#Cc3ccccc3C#Cc3ccccc3C#N)cc2)cc1
[reply] 107

====

- System: NCI-H23 lung
- protocol text: NCI-60 one-dose screen, 48 h (100 = growth as untreated, 0 = no growth, -100 = all killed)
- measurement parameters: 10 µM unless noted
- Description: Growth inhibition of the NCI-H23 human Non-Small Cell Lung tumor cell line is measured as a screen for anti-cancer activity. Cells are grown in 96 well plates and exposed to the test compound for 48 hours. Compounds are tested at a single concentration, which is 10^-5 M for most compounds. The reported endpoint is percent growth (GI% or GIPRCNT), where numbers from 0 - 100% represent growth inhibition, and numbers from -100% - 0 represent cell death. […]
The panel holds about 83,000 compounds, 20% with a hit somewhere; the sample as a whole holds those more often. Calls of active or inactive are those of the source. Rule for the calls: active = growth percent below 10; inactive = the rest.
property: growth

Answered examples (5):
compound	growth
O=C1/C(=C\c2coc3ccccc3c2=O)c2ccccc2N1c1c(Cl)cccc1Cl	55.4% (inactive)
CO[C@H]1/C=C/O[C@@]2(C)Oc3c(C)c(O)c4c(O)c(c(/C=N/N5C(C)CN(Cc6ccc(C#N)cc6)CC5C)c(O)c4c3C2=O)NC(=O)/C(C)=C\C=C\[C@H](C)[C@H](O)[C@@H](C)[C@@H](O)[C@@H](C)[C@H](OC(C)=O)[C@@H]1C (some centres not stated)	11.5% (inactive)
CC1C(=O)NC2=Nc3ccccc3C(=O)NN21 (configuration not stated)	97.2% (inactive)
Cc1ccc(S(=O)(=O)NCCN2c3nc4ccccc4cc3Sc3cc4ccccc4nc32)cc1	56.9% (inactive)
COCCCNS(=O)(=O)c1ncnc2nc[nH]c12	96.4% (inactive)

[ask] Give the measured growth of CCOC(=O)/C(=C/CC/C(C)=C/CC/C(C)=C/CCc1ccoc1)CC(=O)N1CCCCC1 .
[reply] 66.4% (inactive)

[ask] Give the measured growth of CSc1nc2nc3c(c(-c4ccc(C)cc4)c2c(=O)[nH]1)CN(C)C/C3=C\c1ccc(C)cc1 .
[reply] 88.4% (inactive)

[ask] Give the measured growth of COc1ccc(N2CCN(CC(=O)N3CCN(c4nnc(-c5ccccc5)c(-c5ccccc5)n4)CC3)CC2)cc1 .
[reply] 46.8% (inactive)
